TEST_METHOD_NOTES: Kinetic study between CB—OH and CB-Ring by 1H NMR
Format: physicochemical
CONDITION_SET: TFA-d solution, acidic environment, TFA-d / TFA; read-out: half-life of CB—OH (conversion to CB-Ring)
VALUE_TYPE: half-life at 0.2 M

Request: Given the entry C=C(C)C(=O)OCC(O)C[N+](C)(C)CC(=O)[O-] (stereo not shown) , report its measured half-life at 0.2 M.
Response: ~14 min
